assay: Volume of distribution at steady state in rat after iv administration; format: ADME, organism-based; conditions: in vivo
Reported Vdss is given for each of the following compounds.

MOL_SMILES | Vdss
NC(=O)c1csc([C@@H]2O[C@H](CO)[C@@H](O)[C@H]2O)n1 | 2.5 L/kg
CO/N=C(\C(=O)N[C@@H]1C(=O)N2C(C(=O)O)=CCS[C@H]12)c1csc(N)n1 | 0.18 L/kg
CCCCCNC(=O)c1coc([C@H]2[C@@H](Cc3ccccc3CCC(=O)O)[C@@H]3CC[C@H]2O3)n1 | 2.8 L/kg
CCOC(=O)C1(c2ccccc2)CCN(C)CC1 | 24 L/kg
